# TARGET_ENTITY: c-Abl1 (Homo sapiens, UniProt P00519)
# Sequence (P00519 whole entry): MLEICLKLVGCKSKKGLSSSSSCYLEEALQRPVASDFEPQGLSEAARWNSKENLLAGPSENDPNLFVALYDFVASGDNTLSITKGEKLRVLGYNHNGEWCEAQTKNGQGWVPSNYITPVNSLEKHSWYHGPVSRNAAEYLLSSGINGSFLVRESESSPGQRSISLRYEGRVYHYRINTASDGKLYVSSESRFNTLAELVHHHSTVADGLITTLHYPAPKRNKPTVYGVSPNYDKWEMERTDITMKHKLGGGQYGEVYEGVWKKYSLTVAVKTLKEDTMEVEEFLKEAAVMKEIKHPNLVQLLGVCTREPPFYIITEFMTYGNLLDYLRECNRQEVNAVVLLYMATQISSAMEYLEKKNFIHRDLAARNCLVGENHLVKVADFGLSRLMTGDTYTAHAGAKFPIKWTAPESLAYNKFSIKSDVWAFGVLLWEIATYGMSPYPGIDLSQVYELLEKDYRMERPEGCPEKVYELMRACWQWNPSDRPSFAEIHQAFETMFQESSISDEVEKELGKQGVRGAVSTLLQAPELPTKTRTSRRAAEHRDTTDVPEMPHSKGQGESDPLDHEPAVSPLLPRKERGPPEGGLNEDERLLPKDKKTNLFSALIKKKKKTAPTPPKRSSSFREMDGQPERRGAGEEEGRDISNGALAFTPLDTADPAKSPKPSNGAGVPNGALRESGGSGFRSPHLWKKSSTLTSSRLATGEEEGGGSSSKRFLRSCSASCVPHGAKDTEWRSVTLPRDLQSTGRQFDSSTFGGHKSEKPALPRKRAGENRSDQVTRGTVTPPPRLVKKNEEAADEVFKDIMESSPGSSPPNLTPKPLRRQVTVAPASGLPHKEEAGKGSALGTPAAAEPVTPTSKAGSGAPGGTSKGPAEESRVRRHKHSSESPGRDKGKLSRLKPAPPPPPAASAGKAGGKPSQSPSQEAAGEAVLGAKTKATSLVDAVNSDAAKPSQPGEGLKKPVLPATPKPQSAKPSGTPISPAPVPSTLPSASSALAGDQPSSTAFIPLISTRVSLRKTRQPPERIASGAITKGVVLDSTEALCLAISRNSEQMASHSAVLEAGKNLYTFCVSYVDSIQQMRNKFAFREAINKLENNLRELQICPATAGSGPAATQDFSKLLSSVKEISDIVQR
OBSERVED_PROPERTY: IC50

Requested field: IC50. Item: Cc1ccc(NC(=O)c2ccc(CN3CCN(C)CC3)cc2)cc1Nc1nccc(-c2cncc(-c3cnns3)c2)n1 [Compound 8230]
> 1000 nM

###

# EXPERIMENT_DESCRIPTION: Pharmacokinetic parameters in Sprague-Dawley rats
# RUN_PARAMETERS: rat, in vivo
OBSERVED_PROPERTY: clearance
Number first, unit second.

Worked cases, clearance given:
Cc1ccc(NC(=O)c2ccc(CN3CCN(C)CC3)cc2)cc1Nc1nccc(-c2cncc(-c3oncc3C)c2)n1 [Compound 809]	45 mL/min/kg
Cc1ccc(NC(=O)c2ccc(CN3CCN(C)CC3)cc2)cc1Nc1nccc(-c2cncc(-c3nccs3)c2)n1 [Compound 8270]	43.3 mL/min/kg
Cc1ccc(NC(=O)c2ccc(CN3CCN(C)CC3)cc2)cc1Nc1nccc(-c2cncc(-c3ccn(C)n3)c2)n1 [Compound 832]	21.7 mL/min/kg

Parameters: items (list). Returns: clearance for each item.
1. Cc1cc(-c2cncc(-c3ccnc(Nc4cc(NC(=O)c5ccc(CN6CCN(C)CC6)cc5)ccc4C)n3)c2)on1 [Compound 207]
2. Cc1ccnc(-c2cncc(-c3ccnc(Nc4cc(NC(=O)c5ccc(CN6CCN(C)CC6)cc5)ccc4C)n3)c2)c1 [Compound 830]

33.3 mL/min/kg
21.7 mL/min/kg
